# System: ATP;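 note: ATP exposure 15 min at 22 °C before imaging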
# assay_procedure: switch fluorescence ratio, 500 uM ATP over buffer (Cy3 cluster intensity, sum of 5 cycles each) (fold (ratio)); higher = stronger signal-on switching upon ATP binding; sequences stand for … in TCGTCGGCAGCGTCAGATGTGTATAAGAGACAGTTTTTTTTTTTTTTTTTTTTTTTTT…TC
# condition: aptamer strand: ATP DNA aptamer (quencher-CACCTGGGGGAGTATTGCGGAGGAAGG + anchor), 100 nM annealed; ATP concentration: 500 uM
Quick rule for you: switch fluorescence ratio at 1 or higher means True, lower means False.

Example cases with answers are listed next.
# sequence_entry, study_system, class_assignment
data = [
    ("TATTTTTCGC", "ATP", "False"),
    ("TCCTTCACCT", "ATP", "True"),
    ("GTGTTAGAT", "ATP", "False"),
]

Attention now turns to another entry.
**Q:** Check if switch fluorescence ratio >= 1 (inclusive). Item: `TCAAATCGGT`
**A:** True

====

The sequences listed here are annotated with their switch fluorescence ratio.
# Test system: ATP;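 note: ATP exposure 15 min at 22 °C before imaging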
# assay_procedure: switch fluorescence ratio, 500 uM ATP over buffer (Cy3 cluster intensity, sum of 5 cycles each) (fold (ratio)); higher = stronger signal-on switching upon ATP binding; sequences stand for … in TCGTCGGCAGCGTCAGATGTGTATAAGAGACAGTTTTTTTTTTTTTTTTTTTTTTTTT…TC
# condition: aptamer strand: ATP DNA aptamer (quencher-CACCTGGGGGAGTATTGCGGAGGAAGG + anchor), 100 nM annealed; ATP concentration: 500 uM
Write the number on its own, no unit after it.

Observe how each entry below is paired with its result.
# sequence_entry, study_system, assay_metric, number
records = [
    ("ATTTAAGGGT", "ATP", "switch fluorescence ratio", 0.993),
    ("GATTTATGG", "ATP", "switch fluorescence ratio", 0.994),
    ("TGGCAGTGGT", "ATP", "switch fluorescence ratio", 0.993),
    ("GGTTTGGGGA", "ATP", "switch fluorescence ratio", 0.983),
]

**Q:** Could you tell me which switch fluorescence ratio is on file for `GGATGCTGTT` ?
**A:** 1.02

====

# Test system: ATP;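 note: ATP exposure 15 min at 22 °C before imaging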
# assay_procedure: switch fluorescence ratio, 500 uM ATP over buffer (Cy3 cluster intensity, sum of 5 cycles each) (fold (ratio)); higher = stronger signal-on switching upon ATP binding; sequences stand for … in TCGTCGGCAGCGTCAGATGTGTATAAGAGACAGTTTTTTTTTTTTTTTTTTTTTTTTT…TC
# condition: aptamer strand: ATP DNA aptamer (quencher-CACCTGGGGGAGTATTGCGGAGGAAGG + anchor), 100 nM annealed; ATP concentration: 500 uM
assay_metric: switch fluorescence ratio
Quick one: just the number, no unit, thanks!

Sample records with switch fluorescence ratio:
# sequence_entry, switch fluorescence ratio
rows = [
    ("TTTAGAAGGC", 1.08),
    ("ATTTACATCA", 1.02),
]

**Q:** Value lookup for switch fluorescence ratio; key = `GTTTTACGCG`
**A:** 1

**Q:** Now the sequence `GGTGTGGAAA`
**A:** 1

**Q:** // same read-out, input: `AGGTGGGAGT`
**A:** 1.02

====

# System: ATP;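 note: ATP exposure 15 min at 22 °C before imaging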
# assay_procedure: switch fluorescence ratio, 500 uM ATP over buffer (Cy3 cluster intensity, sum of 5 cycles each) (fold (ratio)); higher = stronger signal-on switching upon ATP binding; sequences stand for … in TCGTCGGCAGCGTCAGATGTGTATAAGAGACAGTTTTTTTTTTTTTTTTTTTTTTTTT…TC
# condition: aptamer strand: ATP DNA aptamer (quencher-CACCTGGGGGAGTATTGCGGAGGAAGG + anchor), 100 nM annealed; ATP concentration: 500 uM
Hi, to clarify the labels: 1 covers switch fluorescence ratio from 1 upward, -1 covers anything below 1.

# sequence_entry, study_system, class_assignment
data = [
    ("CCTTAAAAAA", "ATP", 1),
]

**Q:** Decide: switch fluorescence ratio of `TGTTTGGCTT` >= 1?
**A:** -1

**Q:** // query: `GAGGGCCGGT`
**A:** 1

====

Listed below: switch fluorescence ratio values for each entry.
# System: ATP;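 note: ATP exposure 15 min at 22 °C before imaging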
# assay_procedure: switch fluorescence ratio, 500 uM ATP over buffer (Cy3 cluster intensity, sum of 5 cycles each) (fold (ratio)); higher = stronger signal-on switching upon ATP binding; sequences stand for … in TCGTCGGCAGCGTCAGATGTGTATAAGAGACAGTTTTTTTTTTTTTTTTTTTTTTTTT…TC
# condition: aptamer strand: ATP DNA aptamer (quencher-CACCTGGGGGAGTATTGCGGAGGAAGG + anchor), 100 nM annealed; ATP concentration: 500 uM
// no unit string in output, number only

Reference set, count: 10
# sequence_entry, study_system, number
rows = [
    ("ATCGGATTTC", "ATP", 1.02),
    ("ATGAATAGAG", "ATP", 1.02),
    ("AAAGGGGCTG", "ATP", 0.98),
    ("AAATAATTAG", "ATP", 1.01),
    ("GAGGGAGCAG", "ATP", 1.01),
    ("GTGGCGGATT", "ATP", 1.02),
    ("CGGGGGTGCA", "ATP", 1),
    ("TATAGACTTA", "ATP", 0.994),
    ("TTTTGTTTGA", "ATP", 0.995),
    ("TATTTTGCGC", "ATP", 1.02),
]

**Q:** API: value(readout=switch fluorescence ratio, system=ATP) for record `CTGGGGTTCG`;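 note: ATP exposure 15 min at 22 °C before imaging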
**A:** 1.02

====

# Tested on: ATP;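 note: ATP exposure 15 min at 22 °C before imaging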
# assay_procedure: switch fluorescence ratio, 500 uM ATP over buffer (Cy3 cluster intensity, sum of 5 cycles each) (fold (ratio)); higher = stronger signal-on switching upon ATP binding; sequences stand for … in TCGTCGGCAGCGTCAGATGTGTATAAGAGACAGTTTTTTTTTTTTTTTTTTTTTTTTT…TC
# condition: aptamer strand: ATP DNA aptamer (quencher-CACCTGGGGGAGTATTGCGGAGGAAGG + anchor), 100 nM annealed; ATP concentration: 500 uM
Below: a set of entries, each annotated with reported switch fluorescence ratio.
Format: numeric value only, no unit, no commentary.

Reference set (4 entries):
# sequence_entry, study_system, number
records = [
    ("TTTGATTCGG", "ATP", 0.983),
    ("TTGGTGGAAT", "ATP", 1.06),
    ("AAGAAATTAC", "ATP", 1.06),
    ("TACACCGCGG", "ATP", 1.02),
]

**Q:** I am curious: what switch fluorescence ratio value has been reported for `TAAGGTATTT` ?
**A:** 1.01

**Q:** Let us now turn to `TTGATAACAA`
**A:** 1.04

**Q:** Entry `AAAAGGTTAC` please
**A:** 1.06

====

# Test system: ATP;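 note: ATP exposure 15 min at 22 °C before imaging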
# assay_procedure: switch fluorescence ratio, 500 uM ATP over buffer (Cy3 cluster intensity, sum of 5 cycles each) (fold (ratio)); higher = stronger signal-on switching upon ATP binding; sequences stand for … in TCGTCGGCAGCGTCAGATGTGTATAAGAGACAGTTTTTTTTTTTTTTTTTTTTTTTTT…TC
# condition: aptamer strand: ATP DNA aptamer (quencher-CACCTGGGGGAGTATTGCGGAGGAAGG + anchor), 100 nM annealed; ATP concentration: 500 uM
Listed next: entries and their corresponding switch fluorescence ratio.
API note: the answer field is a bare number with no unit suffix.

Worked cases, answers included:
# sequence_entry, switch fluorescence ratio
records = [
    ("GGGGGGAAGA", 0.994),
    ("TCACAGATGG", 1.02),
    ("TAAAGGGGCG", 1.01),
]

**Q:** Requested field: switch fluorescence ratio. Item: `GATGGTAGCC`
**A:** 0.986

**Q:** Please do the same for `TTTGGGTAAG` as well.
**A:** 1

**Q:** Try `TGGGTGGGGC` next.
**A:** 0.997

**Q:** Same for `TTCGTAAGTT`
**A:** 0.995

**Q:** // repeat for `TCGGTGGGGG` and report
**A:** 1.01

**Q:** What do you have for `CGAGATCAAG` ?
**A:** 0.971

**Q:** Now consider `TCGTTTATCA` .
**A:** 0.977

**Q:** # repeat for `TAGGGGAGTG`
**A:** 1.02

**Q:** Then this sequence: `GGGGTCTAAA`
**A:** 1.01

**Q:** Input `CGTTATGGGC`
**A:** 0.979

**Q:** Now the same for `GGGTACAGCT`
**A:** 1.01

**Q:** Cool, now `AAATGCTGGG`
**A:** 0.99

**Q:** Entry `GGGGGGACCG` please
**A:** 0.987

**Q:** Next record, please: `ATTTTTTTTG`
**A:** 0.987

**Q:** Likewise for `CGTGGAGGGA` ?
**A:** 1.01

**Q:** Again, but for `AATAGGGGGA`
**A:** 1.01
